# TARGET UNDER TEST: Muscarinic acetylcholine receptor (Rattus norvegicus) (UniProt P08482+P08483+P08485+P08911+P10980)
# METHOD: Relative affinity of oxotremorine-M (OXO-M) and [3H]quinuclidinyl benzilate (QNB) for muscarinic receptors
# Format: protein assay
READOUT: Ratio

• CO/N=C(\C)C12CCN(CC1)C2 = 255
• CCO/N=C/[C@H]1CN2CC[C@H]1C2 = 23
• CO/N=C(\C)C12CCCN(CC1)C2 (stereo not drawn) = 74
• CO/N=C/C12CCCN(CC1)C2 (stereo not drawn) = 87
• C#CCO/N=C/[C@H]1CN2CC[C@H]1C2 = 78
• CO/N=C/C12CCN(CC1)C2 = 321
• CO/N=C(\C)C1CN2CCC1CC2 (stereo not drawn) = 29
• CC/C(=N\OC)[C@H]1CN2CC[C@H]1C2 = 25
• CO/N=C(\C)[C@H]1CN2CC[C@H]1C2 = 76
• COC(=O)C1CN2CCC1CC2 (stereo not drawn) = 48
• CO/N=C/C1CN2CCC1CC2 (stereo not drawn) = 61
• CCCO/N=C/[C@H]1CN2CC[C@H]1C2 = 10
• CCCCO/N=C/[C@H]1CN2CC[C@H]1C2 = 14
